tested.system: Urotensin-2 receptor (Rattus norvegicus)
experimental.protocol: Agonist activity at UT receptor in Sprague-Dawley rat thoracic aortic ring assessed as induction of contraction relative to KCl-induced contraction
Type: functional
assay.readout: Emax (%)

(P) CC(C)[C@H](NC(=O)[C@@H]1CSSC[C@H](NC(=O)[C@@H](N)CC(=O)O)C(=O)N[C@@H](Cc2ccc(I)cc2)C(=O)N[C@@H](Cc2c[nH]c3ccccc23)C(=O)N[C@@H](CCCCN)C(=O)N[C@@H](Cc2ccc(O)cc2)C(=O)N1)C(=O)O
(Q) CC(C)[C@H](NC(=O)[C@@H]1CSSC[C@H](NC(=O)[C@H](C)N)C(=O)N[C@@H](Cc2ccc(I)cc2)C(=O)N[C@@H](Cc2c[nH]c3ccccc23)C(=O)N[C@@H](CCCCN)C(=O)N[C@@H](Cc2ccc(O)cc2)C(=O)N1)C(=O)O
(R) CC(C)[C@H](NC(=O)[C@@H]1CSSC[C@H](NC(=O)[C@@H](C)N)C(=O)N[C@@H](Cc2ccc(-c3ccccc3)cc2)C(=O)N[C@@H](Cc2c[nH]c3ccccc23)C(=O)N[C@@H](CCCCN)C(=O)N[C@@H](Cc2ccc(O)cc2)C(=O)N1)C(=O)O
(S) CC(C)[C@H](NC(=O)[C@@H]1CSSC[C@H](NC(=O)[C@@H](C)N)C(=O)N[C@@H](Cc2ccc(I)cc2)C(=O)N[C@@H](Cc2c[nH]c3ccccc23)C(=O)N[C@@H](CCCCN)C(=O)N[C@@H](Cc2ccc(O)cc2)C(=O)N1)C(=O)O
Rank descending by Emax: all 4 compounds from above. Reply format: the labels, ordered as requested.
P, Q, S, R

----------
tested.system: Urotensin-2 receptor (Homo sapiens) (UniProt Q9UKP6)
Sequence (Q9UKP6 whole entry): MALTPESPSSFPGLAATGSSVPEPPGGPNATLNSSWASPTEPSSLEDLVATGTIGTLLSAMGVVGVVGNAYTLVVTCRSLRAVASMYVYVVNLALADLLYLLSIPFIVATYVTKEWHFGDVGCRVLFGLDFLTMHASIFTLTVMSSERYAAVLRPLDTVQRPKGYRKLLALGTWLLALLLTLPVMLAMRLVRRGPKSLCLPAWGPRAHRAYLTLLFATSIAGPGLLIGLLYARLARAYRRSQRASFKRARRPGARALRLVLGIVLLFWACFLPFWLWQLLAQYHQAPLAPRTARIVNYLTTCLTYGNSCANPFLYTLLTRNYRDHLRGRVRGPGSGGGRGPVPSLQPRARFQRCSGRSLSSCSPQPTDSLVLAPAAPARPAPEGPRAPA
experimental.protocol: Bias factor, ratio of deltalog(Tau/KA) for agonist activity at human UT receptor expressed in HEK293 cells co-expressing beta-arrestin1-polycistronic BRET biosensor assessed as induction of beta-arrestin1 recruitment by luminescence detection based BRET assay to deltalog(Tau/KA) for agonist activity at human UT receptor expressed in HEK293 cells co-expressing Gq-polycistronic BRET biosensor assessed as induction of Gq activation by luminescence detection based BRET assay
Assay type: functional, cell-based
assay.readout: fold change (FC)

{"query.smiles": "CC(C)[C@H](NC(=O)[C@@H]1CSSC[C@H](NC(=O)[C@H](C)N)C(=O)N[C@@H](Cc2ccc(C#Cc3ccccc3)cc2)C(=O)N[C@@H](Cc2c[nH]c3ccccc23)C(=O)N[C@@H](CCCCN)C(=O)N[C@@H](Cc2ccc(O)cc2)C(=O)N1)C(=O)O", "fold change (FC)": 1.1}

(1) CC(C)[C@H](NC(=O)[C@@H]1CSSC[C@H](NC(=O)[C@H](C)N)C(=O)N[C@@H](Cc2ccccc2)C(=O)N[C@@H](Cc2c[nH]c3ccccc23)C(=O)N[C@@H](CCCCN)C(=O)N[C@@H](Cc2ccc(O)cc2)C(=O)N1)C(=O)O
(2) CC(C)[C@H](NC(=O)[C@@H]1CSSC[C@H](NC(=O)[C@H](C)N)C(=O)N[C@@H](Cc2ccc(-c3ccccc3)cc2)C(=O)N[C@@H](Cc2c[nH]c3ccccc23)C(=O)N[C@@H](CCCCN)C(=O)N[C@@H](Cc2ccc(O)cc2)C(=O)N1)C(=O)O
(3) CC(C)[C@H](NC(=O)[C@@H]1CSSC[C@H](NC(=O)[C@H](N)CC(=O)O)C(=O)N[C@@H](Cc2ccc(I)cc2)C(=O)N[C@@H](Cc2c[nH]c3ccccc23)C(=O)N[C@@H](CCCCN)C(=O)N[C@@H](Cc2ccc(O)cc2)C(=O)N1)C(=O)O
// smallest fold change (FC) at index 0, largest at the end Reply format: the labels, ordered as requested.
2, 1, 3
